# System: MOLT-4 leukemia
# assay_procedure: NCI-60 one-dose screen, 48 h (100 = growth as untreated, 0 = no growth, -100 = all killed)
# condition_summary: 10 µM unless noted
This is part of a sample that, as a whole, favours compounds with a hit. Of some 83,000 tested, about 20% had one in any assay.
experimental_readout: growth (%)
Give bare numbers, in %.

Consider the reported growth for these compounds:
CC/C(=C(\c1ccc(Cl)cc1)c1ccc(OCCN2CCCCC2)cc1)c1ccc(O)cc1 :: -5.41
C[C@H]1[C@H](C)CC[C@]2(C(=O)NCCNCCN)CC[C@]3(C)C(=CC[C@@H]4[C@@]5(C)CCC(=O)C(C)(C)[C@@H]5CC[C@]43C)[C@H]12 :: -9.76
CN(C)CCC(CCN(C)C)(C(=O)O)c1ccccc1 :: 109
COc1cccc(CNc2c3ccccc3nc3ccccc23)c1OC :: 17.9
COc1cc(-c2nccc3[nH]c(-c4cccc5[nH]ccc45)nc23)cc(OC)c1OC :: 19.9
O=[N+]([O-])c1ccccc1Nc1ccc2ccccc2c1 :: 76.8
Cc1nc([P+](c2ccccc2)(c2ccccc2)c2ccccc2)c(N2CCCCC2)o1 :: 28.8
CCCn1c(=S)sc2c(NNC(C)=O)nc(C)nc21 :: 114
N#Cc1c(-c2ccc(Br)cc2)nc2c(N=Nc3ccc(S(N)(=O)=O)cc3)c(N)nn2c1N :: 1.59
O=C1C=CC2(O)OC/C(=C\c3ccccc3)C(O)=C2C1=O (stereo not drawn) :: 7.42

Hi there! I need growth for each item below, if you can.
1. c1ccc(-c2nc3ccccc3[nH]2)c(OCCCCCOc2ccccc2-c2nc3ccccc3[nH]2)c1
2. COc1ccc(C/C(C)=C(\c2ccc(Cl)cc2)c2ccc(OCCN3CCCC3)cc2)cc1
3. N[C@@H]1CCC[C@H]1NCCCCN1C(=O)c2cccc3cc([N+](=O)[O-])cc(c23)C1=O

Outgoing:
1: 56.3; 2: 44.6; 3: -3.36

Hi there! I need growth for each item below, if you can.
1. CCOC(=O)c1c(C)nc2c(c1N)C(=O)C(=O)N2Cc1ccc(OC)cc1
2. N=C(N)c1ccc(-c2ccc(-c3ccccc3)o2)o1
3. CC(=O)O[C@H]1CC[C@]2(C)[C@H]3CC=C4[C@@H]5CC(C)(C)CC[C@]5(C(=O)N5CCN(CCC#N)CC5)CC[C@@]4(C)[C@]3(C)CC[C@H]2C1(C)C
4. COc1ccc(-c2nc3c(c(-c4ccc(Cl)cc4)nn3-c3ccccc3)c(-c3ccccc3)c2C#N)cc1

Outgoing:
[101, 15.6, 19.7, 102]
